Target: UniProt P14416
Sequence (P14416 whole entry): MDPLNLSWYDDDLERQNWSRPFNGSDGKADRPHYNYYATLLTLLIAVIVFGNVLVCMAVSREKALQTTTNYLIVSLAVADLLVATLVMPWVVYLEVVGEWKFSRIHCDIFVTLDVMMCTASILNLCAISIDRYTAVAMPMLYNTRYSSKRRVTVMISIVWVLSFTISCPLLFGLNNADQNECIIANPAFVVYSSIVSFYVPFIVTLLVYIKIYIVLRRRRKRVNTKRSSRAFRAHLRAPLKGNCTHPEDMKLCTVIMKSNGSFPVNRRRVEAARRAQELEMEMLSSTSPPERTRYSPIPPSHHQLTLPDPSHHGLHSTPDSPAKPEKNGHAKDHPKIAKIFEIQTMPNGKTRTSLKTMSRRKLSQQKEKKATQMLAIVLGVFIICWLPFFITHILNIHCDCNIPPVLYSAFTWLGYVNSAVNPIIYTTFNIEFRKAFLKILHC
Test: Displacement of [3H]N-Methylspiperone from human dopamine D2 receptor expressed in fibroblasts
endpoint_label: Ki (µM)
Could you give me the number in µM? Just the number is fine.

input: What value of Ki has been recorded for this entry: COc1cc2c(cc1O)CN(CCCCNC(=O)c1ccc3ccccc3c1)CC2
output: 0.7

input: Returns the measured Ki for the input compound. Input: COc1cc2c(cc1O)CN(CCCCNC(=O)c1ccc(Cl)cc1)CC2
output: 1.1

input: Name the recorded Ki for COc1cc2c(cc1O)CN(CCCCNC(=O)c1ccc(C(N)=O)cc1)CC2 .
output: 0.86

input: What measured Ki goes with COc1cc2c(cc1O)CN(CCCCNC(=O)c1ccc(-c3ccccc3)cc1)CC2 ?
output: 0.8

---

For reference, pKi measured on D(4) dopamine receptor (Homo sapiens):
pKi here is simply -log10 of the concentration when that concentration is written in mol/L.

COc1cc2c(cc1O)CN(CCCCNC(=O)c1ccncc1)CC2	5.85

input: Checklist item: pKi tested on D(4) dopamine receptor (Homo sapiens), entry COc1cc2c(cc1O)CN(CCCCNC(=O)c1ccc(-c3ccccc3)cc1)CC2 , value?
output: 6.14

input: API: value(readout=pKi, system=D(4) dopamine receptor (Homo sapiens)) for record COc1cc2c(cc1O)CN(CCCCNC(=O)c1ccc3ccccc3c1)CC2
output: 6.77

input: GET /values?readout=pKi&system=D(4) dopamine receptor (Homo sapiens)&item= COc1cc2c(cc1O)CN(CCCCNC(=O)c1ccc(I)cc1)CC2
output: 5.82

input: I'm curious: which pKi was measured for COc1cccc(C(=O)NCCCCN2CCc3cc(OC)c(O)cc3C2)c1 tested on D(4) dopamine receptor (Homo sapiens)?
output: 6.82

input: Request - read-out pKi | tested on D(4) dopamine receptor (Homo sapiens) | molecule COc1cc2c(cc1O)CN(CCCCNC(=O)c1ccc(Cl)cc1)CC2
output: 6.85

---

Species: Homo sapiens
Test: Selectivity ratio of Ki for human dopamine D2 receptor expressed in fibroblasts to Ki for human dopamine D3 receptor expressed in HEKT cell membranes
Assay type: cell-based
Below is a list of entries, each paired with its recorded Ratio Ki value.
// no unit string in output, number only

Answered cases to consult:
COc1cc2c(cc1O)CN(CCCCNC(=O)c1ccc(Cl)cc1)CC2	524
COc1cc2c(cc1O)CN(CCCCNC(=O)c1ccc(C(N)=O)cc1)CC2	31
COc1cc2c(cc1O)CN(CCCCNC(=O)c1ccc3ccccc3c1)CC2	260

input: What measured Ratio Ki goes with COc1cc2c(cc1O)CN(CCCCNC(=O)c1ccc(-c3ccccc3)cc1)CC2 ?
output: 296

---

Target: D(3) dopamine receptor (Homo sapiens, UniProt P35462)
Sequence (P35462 whole entry): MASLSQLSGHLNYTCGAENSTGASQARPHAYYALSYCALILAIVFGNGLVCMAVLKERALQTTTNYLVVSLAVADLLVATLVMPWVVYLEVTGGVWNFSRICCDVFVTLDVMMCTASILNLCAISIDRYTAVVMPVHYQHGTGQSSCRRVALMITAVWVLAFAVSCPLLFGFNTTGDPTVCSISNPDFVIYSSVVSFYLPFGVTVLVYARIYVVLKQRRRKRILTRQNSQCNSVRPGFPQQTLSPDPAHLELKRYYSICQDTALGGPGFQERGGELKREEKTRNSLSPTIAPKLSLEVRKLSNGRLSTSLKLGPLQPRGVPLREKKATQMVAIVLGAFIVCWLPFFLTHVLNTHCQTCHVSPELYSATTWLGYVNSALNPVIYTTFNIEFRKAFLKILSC
Assay: Antagonist activity at human dopamine D3 receptor assessed as inhibition of beta-arrestin recruitment by Tango assay
endpoint_label: EC50 (nM)
Only the number, expressed in nM, is required.

input: Which EC50 reading was recorded for the molecule COc1ccc(C(=O)NCCCCN2CCc3cc(OC)c(O)cc3C2)cc1 ?
output: 360

---

Reported values: log10 Ki for D(3) dopamine receptor (Homo sapiens), one per item.
Quick note: numbers are log10 of Ki, with nM as the unit.

The following molecules have reported results that may help.
COc1cc2c(cc1O)CN(CCCCNC(=O)c1ccc3ccccc3c1)CC2	0.43
COc1cc2c(cc1OC)CN(CCCCNC(=O)c1ccc(C#N)cc1)CC2	2.61
COc1cc2c(cc1O)CN(CCCCNC(=O)c1ccc(O)cc1)CC2	0.94
COc1cc2c(cc1O)CN(CCCCNC(=O)c1ccc(F)cc1)CC2	0.64
COc1cccc(C(=O)NCCCCN2CCc3cc(OC)c(O)cc3C2)c1	1.08
COc1cc2c(cc1O)CN(CCCCNC(=O)c1ccc(Cl)cc1)CC2	0.32
COc1cc2c(cc1O)CN(CCCCNC(=O)c1ccnc3ccccc13)CC2	1.34

Let's switch to this molecule now.
input: Form: Entry = COc1cc2c(cc1O)CN(CCCCNC(=O)c1ccc(Br)cc1)CC2 | System = D(3) dopamine receptor (Homo sapiens) | log10 Ki = ____
output: 0.53

---

Target: D(1A) dopamine receptor (Homo sapiens, UniProt P21728)
Sequence (P21728 whole entry): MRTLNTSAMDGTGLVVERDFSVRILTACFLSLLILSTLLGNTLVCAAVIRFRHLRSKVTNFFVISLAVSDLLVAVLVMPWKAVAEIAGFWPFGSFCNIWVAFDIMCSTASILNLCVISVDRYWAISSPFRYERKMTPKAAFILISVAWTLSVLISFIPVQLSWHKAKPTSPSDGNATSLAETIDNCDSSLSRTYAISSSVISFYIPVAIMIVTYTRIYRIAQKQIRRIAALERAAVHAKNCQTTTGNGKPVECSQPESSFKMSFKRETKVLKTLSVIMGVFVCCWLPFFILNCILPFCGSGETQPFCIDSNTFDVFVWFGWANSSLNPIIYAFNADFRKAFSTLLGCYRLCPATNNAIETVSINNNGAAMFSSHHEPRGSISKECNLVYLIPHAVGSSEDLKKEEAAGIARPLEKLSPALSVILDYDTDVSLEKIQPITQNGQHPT
Test: Displacement of [3H]SCH23390 from human dopamine D1 receptor expressed in HEKT cell membranes
The label Condition met is reserved for Ki strictly under 0.8 µM; Condition not met covers values equal to or above it.

These solved cases illustrate the format of a correct answer.
COc1cc2c(cc1O)CN(CCCCNC(=O)c1ccc(Br)cc1)CC2	Condition met
COc1cc2c(cc1O)CN(CCCCNC(=O)c1ccnc3ccccc13)CC2	Condition not met
COc1cc2c(cc1O)CN(CCCCNC(=O)c1ccc(Cl)cc1)CC2	Condition met

input: Threshold test, Ki < 0.8 µM: COc1cc2c(cc1O)CN(CCCCNC(=O)c1ccc(I)cc1)CC2
output: Condition not met

---

Biological target: D(3) dopamine receptor (Homo sapiens)
Test: Antagonist activity at human dopamine D3 receptor assessed as inhibition of beta-arrestin recruitment by Tango assay
Type: functional
endpoint_label: pEC50
Worth noting: pEC50 values are minus log10 of concentrations stated in mol/L.

// below: answered compounds
COc1cc2c(cc1O)CN(CCCCNC(=O)c1ccc(C#N)cc1)CC2	5.85
COc1cc2c(cc1O)CN(CCCCNC(=O)c1ccc(F)cc1)CC2	6.31

Shift focus to the following entry.
input: What pEC50 value was documented for this compound, COc1cc2c(cc1O)CN(CCCCNC(=O)c1ccc(O)cc1)CC2 ?
output: 6.38
